Target: MERTK (UniProt Q12866)
Sequence (Q12866 whole entry, looked up): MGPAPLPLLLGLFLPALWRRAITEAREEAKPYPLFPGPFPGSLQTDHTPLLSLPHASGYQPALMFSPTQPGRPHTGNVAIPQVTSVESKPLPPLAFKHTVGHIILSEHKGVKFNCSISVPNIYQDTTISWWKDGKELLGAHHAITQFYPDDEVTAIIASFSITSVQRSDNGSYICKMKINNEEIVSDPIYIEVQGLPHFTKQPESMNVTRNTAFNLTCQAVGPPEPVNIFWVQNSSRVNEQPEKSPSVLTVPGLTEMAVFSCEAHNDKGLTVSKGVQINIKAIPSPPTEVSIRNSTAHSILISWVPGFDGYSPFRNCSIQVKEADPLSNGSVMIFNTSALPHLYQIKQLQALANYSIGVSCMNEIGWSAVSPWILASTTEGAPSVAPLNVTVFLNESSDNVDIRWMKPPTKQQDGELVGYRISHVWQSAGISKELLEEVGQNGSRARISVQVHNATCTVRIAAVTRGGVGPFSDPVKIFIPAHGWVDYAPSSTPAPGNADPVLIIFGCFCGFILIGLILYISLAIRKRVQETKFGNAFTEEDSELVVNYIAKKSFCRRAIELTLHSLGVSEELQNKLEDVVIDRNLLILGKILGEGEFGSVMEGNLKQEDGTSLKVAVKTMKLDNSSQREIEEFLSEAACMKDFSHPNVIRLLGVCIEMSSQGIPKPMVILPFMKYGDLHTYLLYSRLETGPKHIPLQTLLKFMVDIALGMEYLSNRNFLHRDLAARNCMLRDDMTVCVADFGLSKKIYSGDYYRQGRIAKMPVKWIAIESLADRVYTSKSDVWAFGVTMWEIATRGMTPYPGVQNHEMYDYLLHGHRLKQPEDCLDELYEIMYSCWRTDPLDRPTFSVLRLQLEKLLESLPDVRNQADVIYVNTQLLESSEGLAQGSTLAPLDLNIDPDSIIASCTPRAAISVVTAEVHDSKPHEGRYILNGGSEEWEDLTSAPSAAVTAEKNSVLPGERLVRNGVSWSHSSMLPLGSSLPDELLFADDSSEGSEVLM
Assay: phosphorylation enrichment, bacterial display (enrichment ratio); higher = better substrate or ligand; peptides without Tyr show the background;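 further: 11-residue human phosphosite peptides and single-mutation variants displayed on the E. coli surface, counted by deep sequencing, each peptide's frequency after selection divided by its frequency in the unselected input library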;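 further: frequency after pTyr selection over input frequency; kinase dosed for 20-30% of maximal phosphorylation in three min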
Assign T whenever phosphorylation enrichment does not fall below 0.5; assign F whenever it does.

Is it the case that NAGAFYALSTL [FLVCR2_Y325] has phosphorylation enrichment reaching or exceeding 0.5?
T

Thanks! And LRGEDYGFSVD [PRKCI_Y430] ?
T

// next record PYGQWYESHYA [RPS8_Y113_R110G]
T

Then YDDGKYVYVVT [RPS6KA3_Y488] ?
T

// next record SYSGEYGSGGG [ZG16_Y30_G32S]
T

Then FYDANCDGKEY [MAPRE2_Y162_Y162C] ?
T

Try this sequence next: YDGGCYEQLFV [MC4R_Y41_S36Y]
T

Continue with KTTILYKLKLG [ARF1_Y35]
F

----------
Target: MERTK (UniProt Q12866)
Assay: phosphorylation enrichment, bacterial display (enrichment ratio); higher = better substrate or ligand; peptides without Tyr show the background
Consider the following sequences and their measured phosphorylation enrichment readings.
Respond using a number only.

chain="VSYGEYRYRSV [CFTR_Y515_D513G]" recorded_endpoint="phosphorylation enrichment" reported_value=0.363
chain="FEEVVYQAMEE [TACC3_Y684]" recorded_endpoint="phosphorylation enrichment" reported_value=0.744
chain="FKDFFYCWNTF [AICDA_Y146_YF]" recorded_endpoint="phosphorylation enrichment" reported_value=2.55
chain="SDVCMYRKNIF [SYNE2_Y570_YF]" recorded_endpoint="phosphorylation enrichment" reported_value=0.448
chain="CTTTHYNFMCN [TP53_Y234_I232T_YF]" recorded_endpoint="phosphorylation enrichment" reported_value=0.393
chain="NTCNRYCCDEI [ITGB3_Y660_R662C]" recorded_endpoint="phosphorylation enrichment" reported_value=0.538

phosphorylation enrichment lookup needed for HNELYYEEAEH [VANGL1_Y345] , thanks.
1.11

Now this one: SVVVPYELPEV [TP53_Y220_P222L]
0.47

How about this sequence: RLEGVYGNNID [PTEN_Y46_R47G]
0.657

----------
Molecular target: FGFR1 (UniProt P11362)
Sequence (P11362 whole entry, looked up): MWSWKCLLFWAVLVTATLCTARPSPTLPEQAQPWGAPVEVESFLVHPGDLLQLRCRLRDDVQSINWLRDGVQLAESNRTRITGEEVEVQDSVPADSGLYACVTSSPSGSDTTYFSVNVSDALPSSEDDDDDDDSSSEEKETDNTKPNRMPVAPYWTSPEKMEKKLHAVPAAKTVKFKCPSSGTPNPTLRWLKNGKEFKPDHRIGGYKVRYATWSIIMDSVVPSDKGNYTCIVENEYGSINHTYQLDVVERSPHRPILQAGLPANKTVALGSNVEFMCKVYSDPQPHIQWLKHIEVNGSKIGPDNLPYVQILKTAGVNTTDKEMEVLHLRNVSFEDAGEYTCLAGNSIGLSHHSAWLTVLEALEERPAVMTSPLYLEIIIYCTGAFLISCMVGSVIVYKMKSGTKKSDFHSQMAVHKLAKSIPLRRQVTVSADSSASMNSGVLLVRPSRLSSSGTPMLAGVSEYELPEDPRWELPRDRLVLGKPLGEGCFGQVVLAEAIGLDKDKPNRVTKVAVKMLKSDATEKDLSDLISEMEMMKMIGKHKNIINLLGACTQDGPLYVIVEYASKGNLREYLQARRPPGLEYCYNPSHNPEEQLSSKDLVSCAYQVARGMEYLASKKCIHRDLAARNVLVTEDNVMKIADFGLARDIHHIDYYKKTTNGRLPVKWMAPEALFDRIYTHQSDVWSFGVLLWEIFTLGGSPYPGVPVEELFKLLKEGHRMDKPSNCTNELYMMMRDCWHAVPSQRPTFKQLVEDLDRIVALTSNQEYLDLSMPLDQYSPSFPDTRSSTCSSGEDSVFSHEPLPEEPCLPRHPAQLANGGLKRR
Assay: phosphorylation enrichment, bacterial display (enrichment ratio); higher = better substrate or ligand; peptides without Tyr show the background
recorded.endpoint: phosphorylation enrichment
// response body must contain only the number

chain="LKDEDYLKDIV [HAUS3_Y582]" system="FGFR1 (UniProt P11362)" reported_value=1.04

If you can, please state the reported phosphorylation enrichment value of FRTPGYREVVI [TNS2_Y673_A670T_YF] .
0.45

Could you do the same for FENGEYIVRQG [PRKG1_Y247_I249V_YF] , please?
0.437

----------
Listing of recorded phosphorylation enrichment by entry.
Target: MERTK (UniProt Q12866)
Test: phosphorylation enrichment, bacterial display (enrichment ratio); higher = better substrate or ligand; peptides without Tyr show the background

Example entries begin here.
chain="IHHIDYFKETT [FGFR1_Y653_K656E_YF]" recorded_endpoint="phosphorylation enrichment" reported_value=0.427
chain="PLGVLYKVKVY [PTS_Y128_V124L]" recorded_endpoint="phosphorylation enrichment" reported_value=0.318
chain="CDGKEYDPVEA [MAPRE2_Y167_Y162C]" recorded_endpoint="phosphorylation enrichment" reported_value=0.541
chain="IEPVIYVVQRR [ANOS1_Y217]" recorded_endpoint="phosphorylation enrichment" reported_value=0.531
chain="ELTAKYLNYYQ [P3H4_Y181]" recorded_endpoint="phosphorylation enrichment" reported_value=0.977

So what's the measured phosphorylation enrichment for this one? SNSATYSGSVA [PDLIM5_Y382]
0.516

And for EEVGIYRMSGV [BCR_Y1089_V1091M] ?
0.647
